Molecular target: Amine oxidase [flavin-containing] A (Homo sapiens)
Sequence (P21397 whole entry): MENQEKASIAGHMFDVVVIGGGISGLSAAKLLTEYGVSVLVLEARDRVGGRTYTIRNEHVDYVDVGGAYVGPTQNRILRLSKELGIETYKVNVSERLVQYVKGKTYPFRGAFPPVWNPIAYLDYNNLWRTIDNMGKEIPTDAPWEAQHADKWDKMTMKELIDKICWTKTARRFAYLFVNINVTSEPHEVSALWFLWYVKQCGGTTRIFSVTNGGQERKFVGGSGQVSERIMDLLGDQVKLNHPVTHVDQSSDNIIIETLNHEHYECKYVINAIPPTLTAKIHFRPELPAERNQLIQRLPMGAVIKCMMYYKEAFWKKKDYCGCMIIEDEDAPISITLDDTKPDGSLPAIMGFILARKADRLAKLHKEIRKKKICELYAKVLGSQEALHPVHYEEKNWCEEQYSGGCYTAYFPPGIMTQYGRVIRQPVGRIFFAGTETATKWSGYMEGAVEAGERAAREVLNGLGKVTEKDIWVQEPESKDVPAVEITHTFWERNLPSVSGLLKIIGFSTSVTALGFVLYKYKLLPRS
Experiment: Inhibition of recombinant human MAO-A expressed in baculovirus infected insect cells assessed as reduction in H2O2 production using p-tyramine as substrate pretreated for 15 mins followed by substrate addition and measured over 15 mins by Amplex red reagent based fluorimetric assay
Listing of recorded IC50 by entry.
PROPERTY_MEASURED: IC50 (µM)

>>> df
                       mol_smiles  measurement_qualifier  result
 0  Cc1ccc2oc(-c3cccc(Br)c3)cc2c1                      >     100
 1      Cc1cccc2cc(-c3ccccc3)oc12                      =     100
 2       c1ccc(-c2cc3ccccc3o2)cc1                      >     100
 3    Cc1ccc2oc(-c3ccccc3Br)cc2c1                      =      11
 4    Cc1cccc2cc(-c3ccccc3Br)oc12                      =     100
 5       Brc1ccccc1-c1cc2ccccc2o1                      =    8.12
 6      Cc1ccc2oc(-c3ccccc3)cc2c1                      >     100
 7  Cc1cccc2cc(-c3ccc(Br)cc3)oc12                      =     100
 8  Cc1cccc2cc(-c3cccc(Br)c3)oc12                      >     100
 9  Cc1ccc2oc(-c3ccc(Br)cc3)cc2c1                      >     100
10     Brc1cccc(-c2cc3ccccc3o2)c1                      =     100
11     Brc1ccc(-c2cc3ccccc3o2)cc1                      >     100
